Test system: fibrin-induced microglia activation
Experiment: Image-based assay of fibrin-induced microglia activation (HTS and dose response)
Type: cell-based, rat
Settings: primary microglia HTS, fibrin stimulation; increased cell size (>800 μm^2) as marker of activation
experimental-endpoint: Fibrin % inhibition (%)
Answers are plain numbers, in %.

[
  {
    "compound": "CCCOc1ccc2[nH]c(NC(=O)OC)nc2c1 [Oxybendazole, reference compound]",
    "experimental-endpoint": "Fibrin % inhibition",
    "output-unit": "%",
    "endpoint-value": 78
  },
  {
    "compound": "Cc1ccc(O)cc1",
    "experimental-endpoint": "Fibrin % inhibition",
    "output-unit": "%",
    "endpoint-value": "−15"
  },
  {
    "compound": "CN1CCc2c(c3ccccc3n2Cc2ccccc2)C1.CN1CCc2c(c3ccccc3n2Cc2ccccc2)C1.O=S(=O)(O)c1cccc2c(S(=O)(=O)O)cccc12 [Mebhydrolin Naphthalenesulfonate]",
    "experimental-endpoint": "Fibrin % inhibition",
    "output-unit": "%",
    "endpoint-value": 4
  }
]

Hey, quick one: what's Fibrin % inhibition for each of these?
1. CC[C@H](C)C(=O)O[C@H]1CCC=C2C=C[C@H](C)[C@H](CC[C@@H]3C[C@@H](O)CC(=O)O3)[C@H]21
2. C#CC(C)(O)CC (stereo not shown)
3. Cc1c(N(C)CS(=O)(=O)[O-])c(=O)n(-c2ccccc2)n1C.[Na+]

1: 105; 2: −49; 3: 106

Hey, quick one: what's Fibrin % inhibition for each of these?
1. Cc1onc(-c2ccccc2)c1C(=O)N[C@@H]1C(=O)N2[C@@H]1SC(C)(C)[C@@H]2C(=O)[O-].[Na+] [Oxacillin Sodium]
2. CC(=O)[C@]1(O)Cc2c(O)c3c(c(O)c2[C@@H](O[C@H]2C[C@H](N)[C@H](O)[C@H](C)O2)C1)C(=O)c1ccccc1C3=O.Cl [Idarubicin, Idarubicin Hydrochloride]

1. −20
2. 106
